test description: Compound 1 PK dosed Days 1-5 with topotecan
Format: in vivo, human
measurement setup: human, plasma, intravenous, 200 mg/m^2 with Topotecan 0.75 mg/m^2 (Cohort 3), Day 4, Mean; read-out: t½ (converted)
assay endpoint: half-life (h)
Kindly answer with a numeric value in h, unit omitted.

Reported half-life ( CN1CCN(c2ccc(Nc3ncc4cc5n(c4n3)C3(CCCCC3)CNC5=O)nc2)CC1 ) = 8.81

###

test description: 14-day oral gavage toxicokinetic study in rats
Type: in vivo
measurement setup: male, rat, plasma, po, 15 mg/kg, oral 15 mg/kg, Study Day 1, Male
assay endpoint: Tmax (h)
Kindly answer with a numeric value in h, unit omitted.

Reported Tmax ( CN1CCN(c2ccc(Nc3ncc4cc5n(c4n3)C3(CCCCC3)CNC5=O)nc2)CC1 ) = 4

###

test description: Compound 1 PK dosed Days 1-5 with topotecan
Type: in vivo, human
measurement setup: human, plasma, intravenous, 200 mg/m^2 with Topotecan […]^2 (Cohort 1), Day 1, Mean; read-out: Cmax
assay endpoint: Cmax (ng/mL)
Kindly answer with a numeric value in ng/mL, unit omitted.

Reported Cmax ( CN1CCN(c2ccc(Nc3ncc4cc5n(c4n3)C3(CCCCC3)CNC5=O)nc2)CC1 ) = 955

###

test description: 14-day oral gavage toxicokinetic study in rats
Format: in vivo
measurement setup: both sexes, rat, plasma, po, 2 mg/kg, Mean Compound 1 Plasma Concentration, rats, oral 2 mg/kg, Day 1, 12 h, Overall
assay endpoint: concentration at 12 h
In your response, put the unit directly after the numeric value.

Reported concentration at 12 h ( CN1CCN(c2ccc(Nc3ncc4cc5n(c4n3)C3(CCCCC3)CNC5=O)nc2)CC1 [Compound 1] ) = 67.9 ng/mL

###

test description: 14-day oral gavage toxicokinetic study in rats
Assay type: in vivo
measurement setup: both sexes, rat, plasma, po, 15 mg/kg, Mean Compound 1 Plasma Concentration, rats, oral 15 mg/kg, Day 1, 12 h, Overall
Procedure: Plasma was obtained from blood samples collected from rats in a composite sampling scheme, with 3 samples collected per sex, per dose, at each target collection time, as illustrated in Table 21 to Table 25. […] The following parameters were determined: […] A value of 0 ng/mL was assigned to all values below the lower limit of quantitation (BLQ, <10.0 ng/mL). […] CL: Clearance (L/h/kg), calculated as the dose divided by AUC(0-t). […] Cmax/Dose: Normalized Cmax, calculated as Cmax divided by total dose. […]
assay endpoint: concentration at 12 h (µg/mL)
Kindly answer with a numeric value in µg/mL, unit omitted.

Reported concentration at 12 h ( CN1CCN(c2ccc(Nc3ncc4cc5n(c4n3)C3(CCCCC3)CNC5=O)nc2)CC1 ) = 0.767

###

test description: Topotecan PK following Compound 1 infusion
Format: in vivo, human
measurement setup: human, plasma, intravenous, Topotecan 0.75 mg/m^2 (Cohort 3) with Compound 1 200 mg/m^2, Day 1, Median; read-out: Cmax
assay endpoint: Cmax
In your response, put the unit directly after the numeric value.

Reported Cmax ( CC[C@@]1(O)C(=O)OCc2c1cc1n(c2=O)Cc2cc3c(CN(C)C)c(O)ccc3nc2-1.Cl ) = 26.4 ng/mL

###

test description: 14-day oral gavage toxicokinetic study in rats
Format: in vivo
measurement setup: male, rat, plasma, po, 5 mg/kg, Mean Compound 1 Plasma Concentration, rats, oral 5 mg/kg, Day 14, 2 h, Male
assay endpoint: concentration at 2 h (µg/mL)
Kindly answer with a numeric value in µg/mL, unit omitted.

Reported concentration at 2 h ( CN1CCN(c2ccc(Nc3ncc4cc5n(c4n3)C3(CCCCC3)CNC5=O)nc2)CC1 [Compound 1] ) = 0.436

###

test description: 14-day oral gavage toxicokinetic study in rats
Assay type: in vivo
measurement setup: both sexes, rat, plasma, po, 2 mg/kg, Mean Compound 1 Plasma Concentration, rats, oral 2 mg/kg, Day 1, 2 h, Overall
assay endpoint: concentration at 2 h
In your response, put the unit directly after the numeric value.

Reported concentration at 2 h ( CN1CCN(c2ccc(Nc3ncc4cc5n(c4n3)C3(CCCCC3)CNC5=O)nc2)CC1 [Compound 1] ) = 149 ng/mL

###

test description: 14-day oral gavage toxicokinetic study in rats
Type: in vivo
measurement setup: female, rat, plasma, po, 30 mg/kg, Individual Compound 1 Plasma Concentration, rats, daily oral 30 mg/kg, Day 14, Female, 4 h
assay endpoint: concentration at 4 h (ng/mL)
Kindly answer with a numeric value in ng/mL, unit omitted.

Reported concentration at 4 h ( CN1CCN(c2ccc(Nc3ncc4cc5n(c4n3)C3(CCCCC3)CNC5=O)nc2)CC1 ) = 2700

###

test description: 14-day oral gavage toxicokinetic study in rats
Format: in vivo
measurement setup: female, rat, plasma, po, 2 mg/kg, Mean Compound 1 Plasma Concentration, rats, oral 2 mg/kg, Day 14, 1 h, Female
assay endpoint: concentration at 1 h (ng/mL)
Kindly answer with a numeric value in ng/mL, unit omitted.

Reported concentration at 1 h ( CN1CCN(c2ccc(Nc3ncc4cc5n(c4n3)C3(CCCCC3)CNC5=O)nc2)CC1 [Compound 1] ) = 111

###

test description: 14-day oral gavage toxicokinetic study in rats
Format: in vivo
measurement setup: male, rat, plasma, po, 5 mg/kg, Individual Compound 1 Plasma Concentration, rats, daily oral 5 mg/kg, Day 14, Male, […]
assay endpoint: concentration at […] (ng/mL)
Kindly answer with a numeric value in ng/mL, unit omitted.

Reported concentration at […] ( CN1CCN(c2ccc(Nc3ncc4cc5n(c4n3)C3(CCCCC3)CNC5=O)nc2)CC1 ) = 26

###

test description: 14-day oral gavage toxicokinetic study in rats
Type: in vivo
measurement setup: female, rat, plasma, po, 30 mg/kg, Mean Compound 1 Plasma Concentration, rats, oral 30 mg/kg, Day 14, 4 h, Female
assay endpoint: concentration at 4 h (ng/mL)
Kindly answer with a numeric value in ng/mL, unit omitted.

Reported concentration at 4 h ( CN1CCN(c2ccc(Nc3ncc4cc5n(c4n3)C3(CCCCC3)CNC5=O)nc2)CC1 ) = 2320

###

test description: Single escalating dose IV infusion pharmacokinetics in healthy volunteers (noncompartmental)
Type: in vivo, human
measurement setup: both sexes, human, plasma, iv, 12 mg/m^2, Compound 1 Concentration, Cohort 2, 12 mg/m^2 IV; Time 3.5 h; r7-9=Subjects 1-3,r11=Mean,r13=Min,r14=Median,r15=Max,r17=Geometric Mean
assay endpoint: concentration at 3.5 h
In your response, put the unit directly after the numeric value.

Reported concentration at 3.5 h ( CN1CCN(c2ccc(Nc3ncc4cc5n(c4n3)C3(CCCCC3)CNC5=O)nc2)CC1 ) = 7.89 ng/mL

###

test description: 14-day oral gavage toxicokinetic study in rats
Format: in vivo
measurement setup: male, rat, plasma, po, 30 mg/kg, oral 30 mg/kg, Study Day 14, Male; read-out: t½ (converted)
assay endpoint: half-life (h)
Kindly answer with a numeric value in h, unit omitted.

Reported half-life ( CN1CCN(c2ccc(Nc3ncc4cc5n(c4n3)C3(CCCCC3)CNC5=O)nc2)CC1 [Compound 1] ) = 4.88

###

test description: 14-day oral gavage toxicokinetic study in rats
Assay type: in vivo
measurement setup: female, rat, plasma, po, 30 mg/kg, oral 30 mg/kg, Study Day 1, Female
assay endpoint: Tmax

Reported Tmax ( CN1CCN(c2ccc(Nc3ncc4cc5n(c4n3)C3(CCCCC3)CNC5=O)nc2)CC1 ) = 2 h

###

test description: Single escalating dose IV infusion pharmacokinetics in healthy volunteers (noncompartmental)
Type: in vivo, human
measurement setup: both sexes, human, plasma, iv, 24 mg/m2, Cohort 3, 24 mg/m^2 IV; mean; read-out: Cmax averaged
assay endpoint: Cmax

Reported Cmax ( CN1CCN(c2ccc(Nc3ncc4cc5n(c4n3)C3(CCCCC3)CNC5=O)nc2)CC1 ) = 252 ng/mL

###

test description: 14-day oral gavage toxicokinetic study in rats
Assay type: in vivo
measurement setup: both sexes, rat, plasma, po, 5 mg/kg, oral 5 mg/kg, Study Day 1, Overall
assay endpoint: AUC(0-inf) (ng·h/mL)
Kindly answer with a numeric value in ng·h/mL, unit omitted.

Reported AUC(0-inf) ( CN1CCN(c2ccc(Nc3ncc4cc5n(c4n3)C3(CCCCC3)CNC5=O)nc2)CC1 [Compound 1] ) = 5150

###

test description: Compound 1 PK dosed Days 1-3 with etoposide and carboplatin
Format: in vivo, human
measurement setup: human, plasma, intravenous, 200 mg/m2, 200 mg/m^2 with Etoposide and Carboplatin, Day 1, Median; read-out: AUC24.5
assay endpoint: AUC (µg·h/mL)
Kindly answer with a numeric value in µg·h/mL, unit omitted.

Reported AUC ( CN1CCN(c2ccc(Nc3ncc4cc5n(c4n3)C3(CCCCC3)CNC5=O)nc2)CC1 [Compound 1] ) = 2.27

###

test description: Topotecan PK following Compound 1 infusion
Format: in vivo, human
measurement setup: human, plasma, intravenous, Topotecan 0.75 mg/m^2 (Cohort 3) with Compound 1 200 mg/m^2, Day 1, Median; read-out: AUC24.5
assay endpoint: AUC

Reported AUC ( CC[C@@]1(O)C(=O)OCc2c1cc1n(c2=O)Cc2cc3c(CN(C)C)c(O)ccc3nc2-1.Cl ) = 89.1 ng·h/mL
